protocol.notes: VP16 transactivation inhibitors, counter-screen for SRC1 inhibitor project, cell-based, luminescence, high throughput (AID 588824)
assay.setup: cell-based VP16 transactivation luciferase luminescence; at 3.6 µM; hits give high values
I'd appreciate it if you could supply inhibition values for the items below.
Give bare numbers, in %.

CCc1ccc(-c2cc(C(F)(F)F)n3nc(C(=O)Nc4cnn(Cc5ccc(C)cc5)c4)cc3n2)s1 ... 7.47
Cn1nc(-c2ccccn2)nc2c(=O)n(C)c(=O)nc1-2 ... 53.1
CCOP(=O)(OCC)C(NC(=O)c1cccs1)c1ccccc1 (stereo unspecified) ... -3.21
CN1CC(=O)N2C(c3cccc([N+](=O)[O-])c3)c3[nH]c4ccccc4c3C[C@H]2C1=O (stereo partly specified) ... 34.5
CN(C(=O)c1cccc(NC(=O)Cc2ccc(NC(=O)C3CCCN(C(=O)CCc4ccccc4)C3)cc2)c1)C1CCCC1 (stereo unspecified) ... 19.6

Need inhibition for each of these compounds.
1. Cc1cc2[nH]c3ccccc3c2c(C)n1
2. Cc1cc(OC(C)C(=O)Nc2ccncc2)ccc1Cl (stereo unspecified)
3. O=C(c1cc(COc2c(F)cccc2F)on1)N1CCC(c2ccncc2)CC1
4. Cc1cccc(C)c1-c1ccc(CN2C(CC(C)C)C(=O)N(Cc3cn(CC4CCCCC4)nn3)CCS2(=O)=O)cc1 (stereo unspecified)
5. Cc1cc(-c2nnc(SCC(=O)Nc3ccccc3C(F)(F)F)o2)c(C)n1-c1ccccc1
6. COc1cc2cc(C(=O)Nc3ccc4c(c3)OCCO4)[nH]c2cc1OC
7. O=C(O)CN1C(=O)/C(=C\c2ccccc2OCc2ccc(Cl)cc2Cl)SC1=S

Response:
9.89
7.56
19.7
22.6
-22.9
-48.8
-7.27

Working through the 4 compounds below one at a time, give inhibition for each.
1. CC(O)CC(C(=O)NNc1ccccc1)C(=O)NNc1ccccc1 (stereo unspecified)
2. O=c1[nH]cnc2c1nnn2C1OC(CO)C(O)C1O (stereo unspecified)
3. Cn1c(N)c(C(=O)CSc2nn(-c3ccccc3)c(=S)s2)c(=O)n(C)c1=O
4. Cc1nn(-c2ccccc2)c(N2CCCC2)c1/C=N/NC(=S)Nc1ccc(F)cc1

Response:
[13.1, 17, 17.7, 0.35]

Give inhibition for each listed item.
1. O=C(CSc1ccccc1)Nc1nnc(-c2ccco2)o1
2. Cc1cc(C)c2sc(NNC(=O)c3ccc(S(=O)(=O)N4CCc5ccccc5C4)cc3)nc2c1

Response:
-4.61
46.6

Items follow; give inhibition for each.
1. CN(C(=O)OC(C)(C)C)c1ccc(-c2nc3ccccc3s2)cc1
2. CCOc1cc(/C=C2\CN(C)C/C(=C\c3ccc(O)c(OCC)c3)C2=O)ccc1O
3. CN(CC(=O)NNC(=O)Cc1ccccc1F)S(=O)(=O)c1ccc(Cl)cc1

Response:
1: 76.6; 2: 75.6; 3: 4.4

----------
subject.of.test: Nuclear receptor subfamily 5 group A member 2 (Homo sapiens)
protocol.notes: LRH-1 (NR5A2) inverse agonists, retest, confirmation, cell-based, luminescence (AID 651613);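 further: HEK293T cells co-transfected with LRH-1 and StAR promoter luciferase reporter; 0% = vehicle wells and 100% = parental cells lacking receptor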
assay.setup: cell-based LRH-1 luciferase reporter, inverse agonism; at 3.6 µM; hits give high values
Label rule, in plain words: inhibition of 50% and up is T, under 50% is F.

CCc1ccc2oc(C(=O)NCc3ccncc3)c(C)c2c1 ... T

Request: Answer whether inhibition of O=C(NCc1ccccc1)c1cccc(NC(=O)c2ccccc2)c1 is greater than or equal to 50%.
Response: T

Request: # check: inhibition of CC(C)(C)c1ccc(-c2noc(CCC(N)=O)n2)cc1 is greater than or equal to 50%
Response: T

Request: # bool: inhibition of O=C(c1cc(-c2ccco2)nc2ccccc12)N(Cc1nnc(-c2ccc(Cl)cc2)o1)C1CC1 >= 50%
Response: F

Request: Tell me whether inhibition is at least 50% here: Cc1ccccc1-c1nnc(SCC(=O)Nc2cccc(C)c2C)o1
Response: F

Request: Identify whether the reported inhibition of the following compound is 50% or greater: CC1(C)CC(N2CCN(Cc3ccccc3)CC2)=CC(=[N+]2CCCCC2)C1
Response: T

Request: Please indicate if the recorded inhibition for CCCCCCCCn1c2c(c(=N)c3ccccc31)CCC2 meets or exceeds 50%.
Response: T

Hello, the source for this data is PubChem BioAssay, in case you need it.
